Test Target: His-PP1γ (UniProt P36873 1-323)
Sequence (P36873 whole entry): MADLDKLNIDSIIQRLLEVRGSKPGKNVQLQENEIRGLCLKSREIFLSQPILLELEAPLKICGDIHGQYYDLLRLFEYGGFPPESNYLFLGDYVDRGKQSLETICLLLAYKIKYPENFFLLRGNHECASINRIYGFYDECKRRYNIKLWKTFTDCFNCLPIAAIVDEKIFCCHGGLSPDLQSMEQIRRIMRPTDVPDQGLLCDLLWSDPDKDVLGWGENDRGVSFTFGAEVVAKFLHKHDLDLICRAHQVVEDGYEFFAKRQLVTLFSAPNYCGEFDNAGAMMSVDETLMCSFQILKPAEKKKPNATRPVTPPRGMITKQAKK
Assay Procedure: ITC; peptide (approximately 450 µM, syringe) titrated into PP1γ (~35 µM, cell); 25°C; 50 mM sodium phosphate, 150 mM NaCl, 0.5 mM TCEP, pH 7.5; single-site model
Particulars: both partners purified
Non-standard residues stand in square brackets, D forms with d. No end group written: not given here. pS = N[C@@H](COP(=O)(O)O)C(=O)O
Outcome Measure: pKd
Scale for pKd: -log10 of concentration given in mol/L; no unit attached.

Measured pKd, RRSPRI[pS]FFLEKENEW [Sororin 73-91 pS83 peptide RRSPRI(pS)FFLEKENEW] : 5.87
